Recorded protein stability index values for a group of variants are listed next.
B1: CPXM2 (parent)
chain: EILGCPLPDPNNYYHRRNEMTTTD

- Variants of: B1
- METHOD NOTES: protein stability index of a GFP-peptide fusion (GPS, HEK-293T) (PSI 1-6); higher = more stable;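 note: lentivirally expressed fusions sorted by FACS into six bins by GFP to DsRed ratio, PSI derived from sequencing read proportions per bin multiplied by bin number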
- TEST CONDITIONS: c terminus: a fixed tail appended
Enter the number alone.

Solved cases (5 shown):
>  <CHAIN>
EILGCPLPDPNIYYHRRNEMTTTD [N12I]

>  <protein stability index>
3.05

$$$$
>  <CHAIN>
EILGCPLPDPNNYYHRRNEMLTTD [T21L]

>  <protein stability index>
2.97

$$$$
>  <CHAIN>
EILACPLPDPNNYYHRRNEMTTTD [G4A]

>  <protein stability index>
3.35

$$$$
>  <CHAIN>
EILGCPLPDPNNYYHRRNEMTTGD [T23G]

>  <protein stability index>
3.29

$$$$
>  <CHAIN>
EILFCPLPDPNNYYHRRNEMTTTD [G4F]

>  <protein stability index>
2.69

$$$$

Task item: Quick one: protein stability index for DILGCPLPDPNNYYHRRNEMTTTD [E1D] ?
Reply: 3.8

Task item: What about this variant? EILGCPLPDPNNYDHRRNEMTTTD [Y14D]
Reply: 4.31

Task item: What about this variant? EILGCPLPDPNNYYHRRNVMTTTD [E19V]
Reply: 2.71

Task item: What about this variant? EILGCPLPDPNVYYHRRNEMTTTD [N12V]
Reply: 3.17

Task item: What about this variant? EILGCPLPDPNNYYYRRNEMTTTD [H15Y]
Reply: 3.16

Task item: What about this variant? EILGCPLPDPNNYYHRRNEGTTTD [M20G]
Reply: 4.6
